// reported growth inhibition for each item listed
# assay.overview: NCI Yeast Anticancer Drug Screen. Data for the cln2 rad14 strain (AID 165);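 further: 0% = growth equal to vehicle treated cultures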
# recorded.conditions: S. cerevisiae cln2 rad14 strain, at 50.0 µM (retest, dose inferred, filed as 5.0), stronger effect = higher value
The panel holds about 79,000 compounds, 15% with a hit somewhere; the sample as a whole holds those more often.
The figure you give is taken to be in %; do not add the unit.

Request: Fill in the blank: the reported growth inhibition of COCC(C#N)NC1CC(OC2CC(O)(C(=O)CO)Cc3c(O)c4c(c(O)c32)C(=O)c2c(OC)cccc2C4=O)OC(C)C1O (stereo unspecified) is ____.
Result: 96

Request: Fill in the blank: the reported growth inhibition of O=C(OCC(CCl)OC(=O)C(Cl)(Cl)Cl)C(Cl)(Cl)Cl (stereo unspecified) is ____.
Result: 0

Request: Fill in the blank: the reported growth inhibition of `CC(C)=N.[C-]#[O+].[C-]#[O+].[C-]#[O+].[C-]#[O+].[C-]#[O+].[W]` is ____.
Result: 31

Request: Fill in the blank: the reported growth inhibition of `C[CH2][Sn]1([CH2]C)[O]S(=O)(=O)[O]1` is ____.
Result: 56

Request: Fill in the blank: the reported growth inhibition of `CCCCCCCC[As](C)(=O)O` is ____.
Result: -59

Request: Fill in the blank: the reported growth inhibition of `O=[N+]([O-])c1ccc(CS(=O)(=O)C(Cl)Cl)o1` is ____.
Result: 68

Request: Fill in the blank: the reported growth inhibition of `O=C(CBr)OC1CCCCC1` is ____.
Result: 80

Request: Fill in the blank: the reported growth inhibition of `Oc1c(Cl)cc(Cl)cc1Cl.[Cu+2]` is ____.
Result: 97

Request: Fill in the blank: the reported growth inhibition of CCC1CN1P(=O)(Oc1ccccc1)N1CC1CC (stereo unspecified) is ____.
Result: -7
